B1: library; numbered along this chain (parent)
chain: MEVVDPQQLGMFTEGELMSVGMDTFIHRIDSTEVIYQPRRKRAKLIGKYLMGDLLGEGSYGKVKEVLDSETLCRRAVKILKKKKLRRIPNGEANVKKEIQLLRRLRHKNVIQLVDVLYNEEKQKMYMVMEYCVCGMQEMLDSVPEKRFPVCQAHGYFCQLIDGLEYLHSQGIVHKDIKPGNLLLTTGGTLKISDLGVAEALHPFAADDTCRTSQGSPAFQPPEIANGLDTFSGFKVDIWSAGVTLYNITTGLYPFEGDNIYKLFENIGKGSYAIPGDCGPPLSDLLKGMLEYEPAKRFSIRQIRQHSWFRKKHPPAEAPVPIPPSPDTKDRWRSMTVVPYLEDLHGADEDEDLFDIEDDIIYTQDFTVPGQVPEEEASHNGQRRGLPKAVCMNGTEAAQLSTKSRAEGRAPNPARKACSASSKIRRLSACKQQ

Variants of: B1
ASSAY SUMMARY: STK11 functional score (HeLa growth suppression), rescaled enrichment; synonymous median = 1, nonsense median = 0 (normalised score)
ASSAY CONTEXT: with HeLa; variant type: missense
RECORDED METRIC: STK11 functional score
Quick one: just the number, no unit, thanks!

STK11 functional score in this record for `T13K` : 0.0631

STK11 functional score in this record for `M18H` : 1.37

STK11 functional score in this record for `F366A` : 0.753

STK11 functional score in this record for `T336A` : 1.52

STK11 functional score in this record for `Q100V` : 1.39

STK11 functional score in this record for `G135Y` : 1.32

STK11 functional score in this record for `G268P` : 1.07

STK11 functional score in this record for `L182P` : -0.0858

STK11 functional score in this record for `G188F` : 0.918

STK11 functional score in this record for `I267L` : 0.603

STK11 functional score in this record for `Q214D` : 1.33

STK11 functional score in this record for `G180M` : 0.93

STK11 functional score in this record for `G188V` : 0.388

STK11 functional score in this record for `F148S` : -0.139

STK11 functional score in this record for `Y340V` : 1.6

STK11 functional score in this record for `G188Y` : 1.6

STK11 functional score in this record for `I161S` : -0.0934

STK11 functional score in this record for `I248T` : 1.15

STK11 functional score in this record for `L245C` : 0.21

STK11 functional score in this record for `K423L` : 1.45

STK11 functional score in this record for `Y246C` : 0.451

STK11 functional score in this record for `T336S` : 1

STK11 functional score in this record for `E351V` : 1.36

STK11 functional score in this record for `G180F` : 0.804

STK11 functional score in this record for `T212M` : 0.927

STK11 functional score in this record for `M289F` : -0.0683

STK11 functional score in this record for `A198N` : 0.745

STK11 functional score in this record for `L195E` : 1.59

STK11 functional score in this record for `K62Q` : 1.56

STK11 functional score in this record for `C278L` : 1.08

STK11 functional score in this record for `D176K` : -0.194

STK11 functional score in this record for `R297S` : -0.196

STK11 functional score in this record for `K96F` : 0.801

STK11 functional score in this record for `L195S` : 0.972

STK11 functional score in this record for `L245Q` : 0.383

STK11 functional score in this record for `A318M` : 0.577

STK11 functional score in this record for `T395Y` : 1.47

STK11 functional score in this record for `P319W` : 0.513

STK11 functional score in this record for `G227V` : 0.625

STK11 functional score in this record for `P179E` : 0.0456

STK11 functional score in this record for `K287Q` : 1.19

STK11 functional score in this record for `Q159L` : 0.623

STK11 functional score in this record for `R106I` : 1.71

STK11 functional score in this record for `P275F` : 0.767

STK11 functional score in this record for `A414L` : 1.16

STK11 functional score in this record for `I356N` : 1.45

STK11 functional score in this record for `D343R` : 1.11

STK11 functional score in this record for `G346K` : 1.61

STK11 functional score in this record for `D207A` : 1.27

STK11 functional score in this record for `F157G` : -0.101

STK11 functional score in this record for `E65C` : 1.07

STK11 functional score in this record for `R425I` : 0.977

STK11 functional score in this record for `E145N` : 1.46

STK11 functional score in this record for `V150P` : 0.992

STK11 functional score in this record for `Q214C` : 0.896

STK11 functional score in this record for `E396F` : 1.41

STK11 functional score in this record for `E396N` : 1.49

STK11 functional score in this record for `D115M` : 1.06

STK11 functional score in this record for `R409Y` : 1.53

STK11 functional score in this record for `E121M` : 0.84

STK11 functional score in this record for `Q37M` : 1.17

STK11 functional score in this record for `M11S` : 1.33

STK11 functional score in this record for `K312Y` : 1.2

STK11 functional score in this record for `Y131D` : 0.0798

STK11 functional score in this record for `R147C` : 1.26

STK11 functional score in this record for `I111W` : -0.448

STK11 functional score in this record for `Y292I` : 1.09

STK11 functional score in this record for `H27W` : 0.807

STK11 functional score in this record for `D229L` : 1.05

STK11 functional score in this record for `P324H` : 1.48

STK11 functional score in this record for `T336D` : 0.148

STK11 functional score in this record for `H313C` : 1.26

STK11 functional score in this record for `T185Y` : 0.976

STK11 functional score in this record for `Y246G` : 0.403

STK11 functional score in this record for `L72H` : 0.0684

STK11 functional score in this record for `P149G` : 0.926

STK11 functional score in this record for `Y36R` : 1.3

STK11 functional score in this record for `L344K` : 1.59

STK11 functional score in this record for `A377Q` : 1.59
